assay: log P by HPLC (OECD Guideline 117), method [a] acidic range; assay type: physicochemical; conditions: reversed-phase C18 HPLC column, pH 2.7, HPLC, acidic range, pH 2.7; read-out: log P[a]
Mark each entry met if its chromatographic logP sits below 2, and not met for all others.

Req: Quick check: does Cc1cc(F)c(N2CC(OC3CCCC3)=CC2=O)cc1[S+]([O-])CC(F)(F)F (centres unmarked) [Example 336] have chromatographic logP under 2?
Resp: not met

Req: Dear colleague, could you confirm whether chromatographic logP of Cc1cc(F)c(-n2ncn(C(C)C)c2=O)cc1[S+]([O-])CC(F)(F)F (centres unmarked) [Example 6] falls below 2? Thanks.
Resp: met

Req: Input Cc1cc(F)c(-n2c(C)c(C)sc2=NCC(F)(F)F)cc1SCC(F)(F)F [Example 343] ; condition: chromatographic logP strictly below 2. Does it hold?
Resp: not met

Req: Please determine if Cc1cc(F)c(-n2nc(Br)n(C(C)C)c2=O)cc1[S+]([O-])CC(F)(F)F (centres unmarked) [Example 442] is below 2 in terms of chromatographic logP.
Resp: not met

###

Task for the reader: assign each of the following compounds its reported logP[b].
experiment: log P by HPLC (OECD Guideline 117), method [b] neutral range; assay type: physicochemical; details: HPLC, method [b] neutral range
Please reply with the number alone, leaving off any unit.

Req: Please report the measured logP[b] for Cc1cc(F)c(-n2nc(Br)n(Cc3ccccc3)c2=O)cc1[S+]([O-])CC(F)(F)F (stereo not shown) [Example 443]
Resp: 3.00

Req: Input C=CCn1c(C(F)(F)F)nn(-c2cc([S+]([O-])CC(F)(F)F)c(C)cc2F)c1=O (stereo not shown) [Example 364] , output reported logP[b].
Resp: 2.96

Req: Look up and state reported logP[b] for Cc1cc(F)c(-n2nc(C(C)(C)C)oc2=O)cc1[S+]([O-])CC(F)(F)F (racemic) [Example 452]
Resp: 3.09

Req: Specify logP[b] for CNn1c(C2CC2)nn(-c2cc(SCC(F)(F)F)c(C)cc2F)c1=O [Example 199] and stop.
Resp: 3.07

Req: State its logP[b]: Cc1cc(F)c(-n2nc(C)n(N(C)C)c2=O)cc1[S+]([O-])CC(F)(F)F (stereo not shown) [Example 210]
Resp: 2.09

Req: Please give the documented logP[b] of Cc1cc(F)c(N2CC(OCc3ccccc3)=CC2=O)cc1[S+]([O-])CC(F)(F)F (stereo not shown) [Example 323]
Resp: 2.81

Req: Check the records and state logP[b] for COc1nn(-c2ccc(C#N)c([S+]([O-])CC(F)(F)F)c2)c(=O)n1C1CC1 (stereo not shown) [Example 118]
Resp: 2.43

###

assay: log P by HPLC (OECD Guideline 117), method [b] neutral range; format: physicochemical; details: HPLC, method [b] neutral range
Classify by measured logP[b]: Condition met if it is equal to or exceeds 3, Condition not met if it is smaller.

Req: Quick check, logP[b] >= 3? C=CCOc1nn(-c2cc([S+]([O-])CC(F)(F)F)c(C)cc2F)c(=O)n1C1CC1 (stereo not shown) [Example 391]
Resp: Condition not met

Req: Decide: is the reported value of logP[b] for Cc1cc(F)c(-n2ncn(-c3ccccc3)c2=O)cc1[S+]([O-])CC(F)(F)F (racemic) [Example 357] equal to or greater than 3?
Resp: Condition not met

Req: Is logP[b] at least 3? Consider CCCCOc1nn(-c2cc(SCC(F)(F)F)c(C)cc2F)c(=O)n1C1CC1 [Example 125]
Resp: Condition met

Req: Could you tell me if the measured logP[b] of C=C(C)CCOc1nn(-c2ccc(C)c(SCC(F)(F)F)c2)c(=O)n1C1CC1 [Example 138] reaches 3 or more?
Resp: Condition met

Req: Check the entry Cc1cc(F)c(-n2nc(N(C)C)n(C3CC3)c2=O)cc1SCC(F)(F)F [Example 416] : does logP[b] equal or exceed 3?
Resp: Condition met

Req: Threshold query (logP[b] >= 3) on Cc1cc(F)c(-n2nc(N(C)C)n(N)c2=O)cc1SCC(F)(F)F [Example 220]
Resp: Condition not met

Req: Kindly determine if logP[b] recorded for Cc1cc(F)c(-n2nc([S+](C)[O-])n(C3CC3)c2=O)cc1SCC(F)(F)F (stereo not shown) [Example 230] is above or exactly 3.
Resp: Condition not met

Req: Say whether Cc1cc(F)c(-n2nc(OCc3ccccc3)n(C)c2=O)cc1[S+]([O-])CC(F)(F)F (stereo not shown) [Example 177] shows logP[b] of 3 or more.
Resp: Condition not met

Req: Hello, I need to know if CCCOc1nn(-c2cc([S+]([O-])CC(F)(F)F)c(C)cc2F)c(=O)n1C (stereo not shown) [Example 132] has measured logP[b] not below 3. Thanks!
Resp: Condition not met

Req: Can C=C(C)CCOc1nn(-c2ccc(C)c([S+]([O-])CC(F)(F)F)c2)c(=O)n1C1CC1 (stereo not shown) [Example 139] be said to have logP[b] at or above 3?
Resp: Condition met

Req: # check: logP[b] of COCCOC1=CC(=O)N(c2cc(SCC(F)(F)F)c(C)cc2F)C1 [Example 328] is greater than or equal to 3
Resp: Condition not met

Req: Given the entry CNc1nn(-c2cc(SCC(F)(F)F)c(C)cc2F)c(=O)n1N [Example 218] , answer whether its logP[b] meets or surpasses 3.
Resp: Condition not met

Req: Please check the record CCCn1c(OC)nn(-c2cc(SCC(F)(F)F)c(C)cc2F)c1=O [Example 389] and state if its logP[b] is at or above 3.
Resp: Condition met

Req: Check this compound for logP[b] at or above 3: Cc1cc(F)c(-n2nc(OCC(F)(F)F)n(C3CC3)c2=O)cc1[S+]([O-])CC(F)(F)F (stereo not shown) [Example 102]
Resp: Condition not met

Req: Hi team, for Cc1cc(F)c(N2CC(OCC3CC3)=CC2=O)cc1SCC(F)(F)F [Example 331] , is the recorded logP[b] at or above 3?
Resp: Condition met

Req: Evaluate Cc1cc(C)c(-n2nc(OCC(F)(F)F)n(C3CC3)c2=O)cc1SCC(F)(F)F [Example 377] : logP[b] at minimum 3?
Resp: Condition met

Req: Does the compound Cc1cc(F)c(-n2ncn(Cc3ccccc3)c2=O)cc1[S+]([O-])CC(F)(F)F (stereo not shown) [Example 370] have recorded logP[b] that is 3 or more?
Resp: Condition not met

Req: # check: logP[b] of CCSc1nn(-c2cc(SCC(F)(F)F)c(C)cc2F)c(=O)n1CC [Example 292] is greater than or equal to 3
Resp: Condition met

Req: State whether the measured logP[b] reaches 3, counting equality as reaching it, for Cc1cc(C)c(-n2ncn(C(C)(C)C)c2=O)cc1SCC(F)(F)F [Example 371]
Resp: Condition met

Req: Has Cc1cc(F)c(-n2ncn(C(C)(C)C)c2=O)cc1SCC(F)(F)F [Example 367] a recorded logP[b] greater than or equal to 3?
Resp: Condition met

Req: # bool: logP[b] of CC[S+]([O-])c1nn(-c2cc(SCC(F)(F)F)c(C)cc2F)c(=O)n1C1CC1 (stereo not shown) [Example 234] >= 3
Resp: Condition not met

Req: Say whether CCCSc1nn(-c2cc(SCC(F)(F)F)c(C)cc2F)c(=O)n1C1CC1 [Example 265] shows logP[b] of 3 or more.
Resp: Condition met

Req: Determine whether this compound has logP[b] no lower than 3: CCOCc1nn(-c2cc([S+]([O-])CC(F)(F)F)c(C)cc2F)c(=O)n1C1CC1 (racemic) [Example 74]
Resp: Condition not met

Req: Given the entry COc1ccc(-n2nc(OC)n(C3CC3)c2=O)cc1[S+]([O-])CC(F)(F)F (stereo not shown) [Example 109] , answer whether its logP[b] meets or surpasses 3.
Resp: Condition not met
